Test System: T1, human CXCR4 (chemokine (C-X-C motif) receptor 4) (human, UniProt P61073 1-352)
T1 construct: Endogenous on human tumour cell lines (Ramos, HPB-ALL, Raji, Jurkat, MM1.S, RPMI-8226, MOLP-8, MOLT-4) or transfected into CHO-K1 cells (DiscoveRx); also called CXCR4 receptor
T1 sequence (P61073 whole entry): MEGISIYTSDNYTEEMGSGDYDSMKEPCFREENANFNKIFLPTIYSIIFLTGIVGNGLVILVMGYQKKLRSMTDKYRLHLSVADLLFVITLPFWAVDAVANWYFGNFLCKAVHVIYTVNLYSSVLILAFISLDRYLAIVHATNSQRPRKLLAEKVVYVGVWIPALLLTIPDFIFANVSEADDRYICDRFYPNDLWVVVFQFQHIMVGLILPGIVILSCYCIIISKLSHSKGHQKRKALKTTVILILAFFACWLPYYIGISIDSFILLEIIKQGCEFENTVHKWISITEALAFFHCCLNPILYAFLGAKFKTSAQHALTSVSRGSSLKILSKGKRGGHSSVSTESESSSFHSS
Assay Explanation: flow cytometry on HPB-ALL cells, Fab at 2.5 µg/ml
Property Label: MFI
// no unit, no text: just the number

Some binders with recorded MFI:
h3G10.A57 VH / h3G10.A58A VL Fab (Fab, V domains shown, Tested as Fab) VH: EVQLVESGGGLVQPGGSLRLSCAASGFTFSDYYMSWVRQAPGKGLEWVGFIRHKANFYTTEYSTSVKGRFTISRDDSKNSLYLQMNSLKTEDTAVYYCARDLPGFAYWGQGTLVTVSS VL: DIVMTQSPDSLAVSLGERATINCKSSQSLFNSHTRKNYLAWYQQKPGQPPKLLIYWASARGSGVPDRFSGSGSGTDFTLTISSLQAEDVAVYYCKQSFRLRTFGGGTKVEIK
7400
h3G10.A57 VH / h3G10 VL Fab (Fab, V domains shown, Tested as Fab; also called h3G10.A57 VH / h3G10 L) VH: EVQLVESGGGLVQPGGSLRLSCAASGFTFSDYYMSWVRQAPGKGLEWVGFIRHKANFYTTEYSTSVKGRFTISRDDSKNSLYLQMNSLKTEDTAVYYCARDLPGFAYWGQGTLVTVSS VL: DIVMTQSPDSLAVSLGERATINCKSSQSLFNSRTRKNYLAWYQQKPGQPPKLLIYWASARESGVPDRFSGSGSGTDFTLTISSLQAEDVAVYYCKQSFNLRTFGGGTKVEIK
4060

Q: I have this binder here, h3G10.2.45 VH / h3G10.2.72 VL Fab (Fab, V domains shown, Tested as Fab) VH: EVQLVESGGGLVQPGGSLRLSCAASGFTFSDYYMSWVRQAPGKGLEWVGFIRHKANFYTTEYSTWVKGRFTISRDDSKNSLYLQMNSLKTEDTAVYYCARDLPGFAYWGQGTLVTVSS VL: DIVMTQSPDSLAVSLGERATINCKSSQSLFNSRTRKNYLAWYQQKPGQPPKLLIYWASARESGVPDRFSGSGSGTDFTLTISSLQAEDVAVYYCKQSFRLRTFGGGTKVEIK , and I need its recorded MFI.
A: 2780
